- target-desc: T1, hPRLR.mmh (soluble monomeric human PRLR) (Homo sapiens, UniProt P16471)
- T1 construct: soluble monomeric (hPRLR.mmh); mmh (myc-myc-hexahistidine)
- T1 sequence (P16471 with tags, fused parts or gaps): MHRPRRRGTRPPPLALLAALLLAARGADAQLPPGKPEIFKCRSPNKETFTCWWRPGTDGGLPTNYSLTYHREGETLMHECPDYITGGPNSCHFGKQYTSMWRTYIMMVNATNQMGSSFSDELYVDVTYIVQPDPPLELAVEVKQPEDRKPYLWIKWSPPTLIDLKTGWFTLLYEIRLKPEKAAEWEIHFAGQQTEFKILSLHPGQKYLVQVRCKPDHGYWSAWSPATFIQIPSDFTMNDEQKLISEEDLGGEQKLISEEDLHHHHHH
- procedure-details: Surface plasmon resonance (Biacore T200), mAb-capture format
- Assay type: binding
- protocol-conditions: 25° C., antibody-capture format, analyte hPRLR.mmh
I'd appreciate it if you could supply T½ values for the items below.
Answer with the number, then the unit.

INSERT INTO results (molecule, quantity_measured, result) VALUES
  ('H1H6793P: anti-PRLR antibody, human IgG1 Fc; HCVR/LCVR SEQ ID NOs 146/154 (antibody, V domains shown, human IgG1 Fc) VH: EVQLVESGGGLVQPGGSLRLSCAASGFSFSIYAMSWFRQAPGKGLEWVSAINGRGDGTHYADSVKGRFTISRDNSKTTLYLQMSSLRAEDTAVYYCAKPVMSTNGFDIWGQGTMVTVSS VL: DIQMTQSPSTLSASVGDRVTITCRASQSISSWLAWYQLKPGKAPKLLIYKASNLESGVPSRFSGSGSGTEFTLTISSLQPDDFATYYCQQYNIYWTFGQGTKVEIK', 'T½', '35 min');

Go through the items and report each one's T½.
1. H1H6803P: anti-PRLR antibody, human IgG1 Fc; HCVR/LCVR SEQ ID NOs 226/234 (antibody, V domains shown, human IgG1 Fc) VH: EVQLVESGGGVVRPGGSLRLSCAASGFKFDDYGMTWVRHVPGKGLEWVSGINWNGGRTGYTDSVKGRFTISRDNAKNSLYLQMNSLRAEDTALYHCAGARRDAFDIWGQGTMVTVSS VL: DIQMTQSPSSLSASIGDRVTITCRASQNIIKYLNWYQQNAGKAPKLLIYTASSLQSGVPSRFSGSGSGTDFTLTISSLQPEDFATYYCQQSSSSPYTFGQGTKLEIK
2. H1H6800P: anti-PRLR antibody, human IgG1 Fc; HCVR/LCVR SEQ ID NOs 194/202 (antibody, V domains shown, human IgG1 Fc) VH: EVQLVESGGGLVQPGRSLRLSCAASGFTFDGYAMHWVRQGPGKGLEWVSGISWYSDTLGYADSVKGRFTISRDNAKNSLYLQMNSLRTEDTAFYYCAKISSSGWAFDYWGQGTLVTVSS VL: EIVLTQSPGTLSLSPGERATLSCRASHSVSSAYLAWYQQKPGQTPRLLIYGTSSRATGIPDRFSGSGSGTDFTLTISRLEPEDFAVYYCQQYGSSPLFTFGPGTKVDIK

1. 84 min
2. 28 min

Dear colleague, I am looking for the recorded T½ of the following molecule: H1H6976N: human IgG1 Fc form of H2M6976N; anti-PRLR; HCVR/LCVR SEQ ID NOs 386/394 (antibody, V domains shown, human IgG1 Fc) VH: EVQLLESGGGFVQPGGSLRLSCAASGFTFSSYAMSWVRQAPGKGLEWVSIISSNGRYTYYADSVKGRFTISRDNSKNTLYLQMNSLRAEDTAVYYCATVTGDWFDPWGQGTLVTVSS VL: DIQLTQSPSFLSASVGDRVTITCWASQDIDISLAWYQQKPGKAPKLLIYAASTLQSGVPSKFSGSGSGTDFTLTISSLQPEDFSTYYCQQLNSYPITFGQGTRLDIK
13.4 min

meta.source: patent US9688764B2
